The measurements presented in this section are drawn from the supplement of paper PMC10266784.

B1: library; numbered along this chain (parent)
chain: MAAAAAAAAEQQSSNGPVKKSMREKAVERRSVNKEHNSNFKAGYIPIDEDRLHKTGLRGRKGNLAICVIILLFILAVINLIITLVIWAVIRIGPNGCDSMEFHESGLLRFKQVSDMGVIHPLYKSTVGGRRNENLVITGNNQPIVFQQGTTKLSVENNKTSITSDIGMQFFDPRTQNILFSTDYETHEFHLPSGVKSLNVQKASTERITSNATSDLNIKVDGRAIVRGNEGVFIMGKTIEFHMGGNMELKAENSIILNGSVMVSTTRLPSSSSGDQLGSGDWVRYKLCMCADGTLFKVQVTSQNMGCQISDNPCGNTH

- Variants of: B1
- protocol details: SGCB cell-surface expression functional score (HA stain, bin4 vs bin1, normalised to synonymous) (log10 ratio); higher = more cell-surface SGCB (functional)
metric name: SGCB cell-surface expression functional score (log10)
# respond with the number and nothing more

Prompt: Query: SGCB cell-surface expression functional score (log10); subject: P121I
Completion: -0.16

Prompt: Value lookup for SGCB cell-surface expression functional score (log10); key = T151V
Completion: -0.15

Prompt: Please look up its SGCB cell-surface expression functional score (log10): A8D
Completion: 0.14

Prompt: Bench note: what SGCB cell-surface expression functional score (log10) did I255E show?
Completion: -0.85

Prompt: Requested field: SGCB cell-surface expression functional score (log10). Item: T160I
Completion: 0.64

Prompt: Given G280H , state its recorded SGCB cell-surface expression functional score (log10).
Completion: 0.05

Prompt: What does the data say about its SGCB cell-surface expression functional score (log10)? Entry: A291E
Completion: -0.98

Prompt: Reported SGCB cell-surface expression functional score (log10) for I86F : what is it?
Completion: -0.48

Prompt: Which SGCB cell-surface expression functional score (log10) value belongs to A224E ?
Completion: -1.01

Prompt: Find the recorded SGCB cell-surface expression functional score (log10) belonging to E156G and report it.
Completion: -0.23

Prompt: Given K196S , state its recorded SGCB cell-surface expression functional score (log10).
Completion: -0.1

Prompt: Would you mind telling me what SGCB cell-surface expression functional score (log10) value was observed for Q147A ?
Completion: 0.19

Prompt: # query: SGCB cell-surface expression functional score (log10) of entry M1S
Completion: 0.07

Prompt: Requested field: SGCB cell-surface expression functional score (log10). Item: T301I
Completion: -0.29

Prompt: For the variant shown here, S204T , give the reported SGCB cell-surface expression functional score (log10).
Completion: -0.17

Prompt: What value of SGCB cell-surface expression functional score (log10) has been recorded for this entry: G139D
Completion: -0.84

Prompt: Returns the measured SGCB cell-surface expression functional score (log10) for the input variant. Input: S260M
Completion: 0.98

Prompt: Could you share which SGCB cell-surface expression functional score (log10) value was measured for V85E ?
Completion: 0.35

Prompt: GET /values?readout=SGCB cell-surface expression functional score (log10)&item= V298E
Completion: 0.17

Prompt: Looking for the measured SGCB cell-surface expression functional score (log10) of R223F , can you help?
Completion: -0.62

Prompt: # get_value(readout='SGCB cell-surface expression functional score (log10)', item= I119M )
Completion: 0.58

Prompt: Entry S260V : reported SGCB cell-surface expression functional score (log10) = ?
Completion: 0.01

Prompt: Could you tell me which SGCB cell-surface expression functional score (log10) is on file for A7Q ?
Completion: 0.41

Prompt: Which SGCB cell-surface expression functional score (log10) is listed for A26N ?
Completion: -0.24

Prompt: Looking for the measured SGCB cell-surface expression functional score (log10) of F73C , can you help?
Completion: 0.34

Prompt: Requested field: SGCB cell-surface expression functional score (log10). Item: D275A
Completion: -0.05

Prompt: Item under review: L295I . Reported SGCB cell-surface expression functional score (log10)?
Completion: 0.11

Prompt: Looking for the measured SGCB cell-surface expression functional score (log10) of F73H , can you help?
Completion: 0.54

Prompt: Quick one: SGCB cell-surface expression functional score (log10) for I66E ?
Completion: 0.12

Prompt: I would be grateful if you could share the reported SGCB cell-surface expression functional score (log10) for L122R .
Completion: 0.49

Prompt: Looking for the measured SGCB cell-surface expression functional score (log10) of L198H , can you help?
Completion: -0.37
